Values compiled from patent US20100004431A1.

Target: TNFα (UniProt P01375 77-233)
Sequence (P01375 77-233 limits assumed): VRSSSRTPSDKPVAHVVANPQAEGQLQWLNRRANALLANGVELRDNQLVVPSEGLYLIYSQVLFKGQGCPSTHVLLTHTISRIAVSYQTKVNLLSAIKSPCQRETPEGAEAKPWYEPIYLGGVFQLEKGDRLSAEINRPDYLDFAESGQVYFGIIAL
Test: SPR (Biacore), TNFα on CM5 chip, Fab injected; mean of two runs ± SD
observation.type: kon (M⁻¹ s⁻¹)

binder	reported.value
Anti-TNFα H1.67L1.33 (Fab, V domains shown, Fab format) VH: EVQLVESGGGLVQPGGSLKLSCAASGFTFSNHWMNWVRQASGKGLEWVGEIRSKAISYATHYAASVKGRFTISRDDSKNTAYLQMNSLKTEDTAVYYCSRNYYGSTYDYWGQGTLVTVSS VL: EIVLTQSPDFQSVTPKEKVTITCRASQFIGSSLHWYQQKPDQSPKLLIKYASESFSGVPSRFSGSGSGTDFTLTINSLEAEDAATYYCQQSHSWPFTFGSGTKLEIK	200000
